All values here come from patent US20240024426A1.

Listing of recorded In vitro activity compared with native peptide (%) vs. GLP-1 by entry.
Biological target: human GLP-1 receptor (human, UniProt P43220 24-463)
Assay: cell-based or functional assay
Bridges are numbered along the chain shown (N, C = ends). Where no end group is shown, it is not given here. [ ]: non-standard residue; d: D form. The star is where a group is joined. Acetyl(2-(4-imidazolyl)) = O=C(Cc1c[nH]cn1)*; Aib = CC(C)(N)C(=O)O
observation-type: In vitro activity compared with native peptide (%) vs. GLP-1

- binder: "H[Aib]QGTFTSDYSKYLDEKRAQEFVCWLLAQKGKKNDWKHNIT [Triple agonist of SEQ ID NO: 28]"
  numeric-readout: 17.2
- binder: "Y[Aib]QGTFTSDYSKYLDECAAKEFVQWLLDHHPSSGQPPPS (bridge 16-20) [Triple agonist of SEQ ID NO: 64]"
  numeric-readout: 64.6
- binder: "{Acetyl(2-(4-imidazolyl))}-[Aib]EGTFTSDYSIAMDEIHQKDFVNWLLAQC (bridge 15-19) [Triple agonist of SEQ ID NO: 83]"
  numeric-readout: 47.3
- binder: "H[Aib]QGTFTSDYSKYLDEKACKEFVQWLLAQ (bridge 16-20) [Triple agonist of SEQ ID NO: 31]"
  numeric-readout: 135
- binder: "H[Aib]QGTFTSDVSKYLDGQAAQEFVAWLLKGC [Triple agonist of SEQ ID NO: 8]"
  numeric-readout: 14.2
- binder: "H[Aib]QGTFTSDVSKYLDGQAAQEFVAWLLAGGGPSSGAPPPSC [Triple agonist of SEQ ID NO: 10]"
  numeric-readout: 46
- binder: "{Acetyl(2-(4-imidazolyl))}-[Aib]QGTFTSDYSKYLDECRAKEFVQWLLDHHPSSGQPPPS (bridge 15-19) [Triple agonist of SEQ ID NO: 73]"
  numeric-readout: 22.6
- binder: "Y[Aib]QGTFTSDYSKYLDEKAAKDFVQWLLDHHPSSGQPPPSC (bridge 16-20) [Triple agonist of SEQ ID NO: 77]"
  numeric-readout: 38.7
- binder: "H[Aib]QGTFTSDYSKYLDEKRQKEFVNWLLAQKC (bridge 16-20) [Triple agonist of SEQ ID NO: 34]"
  numeric-readout: 19.1
- binder: "H[Aib]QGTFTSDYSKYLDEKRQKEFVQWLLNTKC (bridge 16-20) [Triple agonist of SEQ ID NO: 58]"
  numeric-readout: 39.1
- binder: "Y[Aib]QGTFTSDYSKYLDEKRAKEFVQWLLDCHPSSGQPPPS (bridge 16-20) [Triple agonist of SEQ ID NO: 97]"
  numeric-readout: 10.5
- binder: "H[Aib]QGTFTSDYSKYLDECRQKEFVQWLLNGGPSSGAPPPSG (bridge 16-20) [Triple agonist of SEQ ID NO: 37]"
  numeric-readout: 236
- binder: "H[Aib]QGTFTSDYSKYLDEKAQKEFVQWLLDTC (bridge 16-20) [Triple agonist of SEQ ID NO: 30]"
  numeric-readout: 142
- binder: "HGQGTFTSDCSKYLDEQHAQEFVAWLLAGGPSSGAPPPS [Triple agonist of SEQ ID NO: 46]"
  numeric-readout: 1.4
